Test system: SF-268
Experiment: NCI one-dose SRB assay
Type: cell-based
Conditions: Homo sapiens, SF-268 (CNS Cancer), 1.00E-5 Molar, read-out: Growth Percent

| MOLECULE | activity at 10 µM (%) |
| --- | --- |
| NS(=O)(=O)c1ccc(NC(=O)C(=Cc2ccc(Cl)cc2)NC(=O)c2ccccc2)cc1 [Compound 5a] | 96 |
| NS(=O)(=O)c1ccc(NC(=O)C(=Cc2ccc(Br)cc2)NC(=O)c2ccccc2)cc1 [Compound 5c] | 99.6 |
| Cc1ccc(C=C(NC(=O)c2ccccc2)C(=O)Nc2ccc(S(N)(=O)=O)cc2)o1 [Compound 5h] | 100 |
| COc1ccc(C=C(NC(=O)c2ccccc2)C(=O)Nc2ccc(S(N)(=O)=O)cc2)cc1 [Compound 5e] | 113 |

---

pKi: −log10 of the molar value.
Assay read-out pKi; system under study: hCA IX (Homo sapiens, UniProt Q16790).
VALUE_KIND: pKi

| SMILES | RECORDED_VALUE |
| --- | --- |
| Cc1ccc(C=C(NC(=O)c2ccccc2)C(=O)Nc2ccc(S(N)(=O)=O)cc2)cc1 | 7.21 |
| COc1ccc(C=C(NC(=O)c2ccccc2)C(=O)Nc2ccc(S(N)(=O)=O)cc2)cc1 | 7.11 |
| Cc1ccc(C=C(NC(=O)c2ccccc2)C(=O)Nc2ccc(S(N)(=O)=O)cc2)o1 | 8.08 |
| COc1ccc(C=C(NC(=O)c2ccccc2)C(=O)Nc2ccc(S(N)(=O)=O)cc2)cc1OC | 6.91 |
| NS(=O)(=O)c1ccc(NC(=O)C(=Cc2ccc(Br)cc2)NC(=O)c2ccccc2)cc1 | 7.47 |
| COc1ccc(C=C(NC(=O)c2ccccc2)C(=O)Nc2ccc(S(N)(=O)=O)cc2)c(OC)c1 | 7.13 |
| NS(=O)(=O)c1ccc(NC(=O)C(=Cc2ccc(Cl)cc2Cl)NC(=O)c2ccccc2)cc1 | 7.74 |
| NS(=O)(=O)c1ccc(NC(=O)C(=Cc2ccc(Cl)cc2)NC(=O)c2ccccc2)cc1 | 8.06 |

---

# activity at 10 µM values compiled below
Test system: OVCAR-3
Assay: NCI one-dose SRB assay
Assay type: cell-based
Settings: Homo sapiens, OVCAR-3 (Ovarian Cancer), 1.00E-5 Molar, read-out: Growth Percent
Protocol: First, all diamide-based benzenesulfonamides herein reported 5a–h were screened for their antitumor activity at one dose (10^−5 M) assay against a panel of sixty cancer cell lines through the National Cancer Institute (NCI) Developmental Therapeutic Program (www.dtp.nci.nih.gov), according to US-NCI protocol. The cell growth and cell viability were evaluated using the sulforhodamine B (SRB) colorimetric assay. […]

| COMPOUND | MEASUREMENT_TARGET | activity at 10 µM / % |
| --- | --- | --- |
| COc1ccc(C=C(NC(=O)c2ccccc2)C(=O)Nc2ccc(S(N)(=O)=O)cc2)cc1OC [Compound 5g] | OVCAR-3 | 107 |
| NS(=O)(=O)c1ccc(NC(=O)C(=Cc2ccc(Cl)cc2)NC(=O)c2ccccc2)cc1 [Compound 5a] | OVCAR-3 | 104 |
| COc1ccc(C=C(NC(=O)c2ccccc2)C(=O)Nc2ccc(S(N)(=O)=O)cc2)cc1 [Compound 5e] | OVCAR-3 | 111 |
| COc1ccc(C=C(NC(=O)c2ccccc2)C(=O)Nc2ccc(S(N)(=O)=O)cc2)c(OC)c1 [Compound 5f] | OVCAR-3 | 113 |
